System: Escherichia coli TOP10
EXPERIMENT_DESCRIPTION: shrunken log2 fold change of peptide-encoding DNA abundance (4.5 h post-induction vs induction); higher = less antimicrobial activity (less host growth inhibition)
CONDITION_LABEL: time post-induction: 4.5 h; library: site-saturation at positions 5, 18, 19, 20
I'd be grateful if you could share measured shrunken log2 fold change for these entries.
One number for each entry.

Consider the following illustrative entries.
{"ORDERED_RESIDUES": "RRIRDRPPRLPRPRPRPQSLPRP", "shrunken log2 fold change": -0.0208}
{"ORDERED_RESIDUES": "RRIRPRPPRLPRPRPRPVKMPRP", "shrunken log2 fold change": 0.137}
{"ORDERED_RESIDUES": "RRIRARPPRLPRPRPRPMDVPRP", "shrunken log2 fold change": 0.241}
{"ORDERED_RESIDUES": "RRIRKRPPRLPRPRPRPEAKPRP", "shrunken log2 fold change": 2.54}
{"ORDERED_RESIDUES": "RRIRLRPPRLPRPRPRPADNPRP", "shrunken log2 fold change": -0.26}
{"ORDERED_RESIDUES": "RRIRKRPPRLPRPRPRPRMRPRP", "shrunken log2 fold change": 1.06}

Provide shrunken log2 fold change for all items below, preserving their order.
1. RRIRKRPPRLPRPRPRPFMWPRP
2. RRIRRRPPRLPRPRPRPAACPRP

[-0.078, 0.0555]

---

System: Escherichia coli TOP10
EXPERIMENT_DESCRIPTION: shrunken log2 fold change of peptide-encoding DNA abundance (4.5 h post-induction vs induction); higher = less antimicrobial activity (less host growth inhibition)
CONDITION_LABEL: time post-induction: 4.5 h; library: site-saturation at positions 5, 18, 19, 20
Rule: 1 for shrunken log2 fold change not less than -0.09, 0 for anything less.

{"ORDERED_RESIDUES": "RRIRMRPPRLPRPRPRPESNPRP", "CLASS_ASSIGNMENT": 1}
{"ORDERED_RESIDUES": "RRIRARPPRLPRPRPRPHHEPRP", "CLASS_ASSIGNMENT": 0}
{"ORDERED_RESIDUES": "RRIRHRPPRLPRPRPRPRRQPRP", "CLASS_ASSIGNMENT": 1}
{"ORDERED_RESIDUES": "RRIRARPPRLPRPRPRPDMDPRP", "CLASS_ASSIGNMENT": 1}
{"ORDERED_RESIDUES": "RRIRYRPPRLPRPRPRPWSWPRP", "CLASS_ASSIGNMENT": 1}

Now consider the entry below.
I'd appreciate it if you could say whether RRIRLRPPRLPRPRPRPNSQPRP has shrunken log2 fold change at least equal to -0.09.
0

---

Tested on: Escherichia coli TOP10
EXPERIMENT_DESCRIPTION: shrunken log2 fold change of peptide-encoding DNA abundance (4.5 h post-induction vs induction); higher = less antimicrobial activity (less host growth inhibition)
CONDITION_LABEL: time post-induction: 4.5 h; library: site-saturation at positions 5, 18, 19, 20
MEASURED_METRIC: shrunken log2 fold change
Give bare numbers.

Consider the following illustrative entries.
{"ORDERED_RESIDUES": "RRIRKRPPRLPRPRPRPSIEPRP", "SYSTEM": "Escherichia coli TOP10", "shrunken log2 fold change": 0.0829}
{"ORDERED_RESIDUES": "RRIRCRPPRLPRPRPRPWHDPRP", "SYSTEM": "Escherichia coli TOP10", "shrunken log2 fold change": -0.142}
{"ORDERED_RESIDUES": "RRIRDRPPRLPRPRPRPIHMPRP", "SYSTEM": "Escherichia coli TOP10", "shrunken log2 fold change": 0.0641}
{"ORDERED_RESIDUES": "RRIRHRPPRLPRPRPRPDPWPRP", "SYSTEM": "Escherichia coli TOP10", "shrunken log2 fold change": 0.0282}
{"ORDERED_RESIDUES": "RRIRYRPPRLPRPRPRPAQEPRP", "SYSTEM": "Escherichia coli TOP10", "shrunken log2 fold change": 0.075}
{"ORDERED_RESIDUES": "RRIRARPPRLPRPRPRPYLLPRP", "SYSTEM": "Escherichia coli TOP10", "shrunken log2 fold change": -0.76}
{"ORDERED_RESIDUES": "RRIRTRPPRLPRPRPRPEGMPRP", "SYSTEM": "Escherichia coli TOP10", "shrunken log2 fold change": 0.18}
{"ORDERED_RESIDUES": "RRIRARPPRLPRPRPRPMYNPRP", "SYSTEM": "Escherichia coli TOP10", "shrunken log2 fold change": -0.48}

Provide shrunken log2 fold change for all items below, preserving their order.
1. RRIRVRPPRLPRPRPRPRDHPRP
2. RRIRARPPRLPRPRPRPYECPRP
3. RRIRRRPPRLPRPRPRPVILPRP
4. RRIRLRPPRLPRPRPRPPIPPRP
5. RRIRDRPPRLPRPRPRPECCPRP
6. RRIRKRPPRLPRPRPRPPSEPRP

0.172
-0.327
-0.259
0.316
0.828
0.413

Bench note: what shrunken log2 fold change did RRIRFRPPRLPRPRPRPSDMPRP show?
-0.11

---

Test system: Escherichia coli TOP10
EXPERIMENT_DESCRIPTION: shrunken log2 fold change of peptide-encoding DNA abundance (4.5 h post-induction vs induction); higher = less antimicrobial activity (less host growth inhibition)
CONDITION_LABEL: time post-induction: 4.5 h; library: site-saturation at positions 5, 18, 19, 20
MEASURED_METRIC: shrunken log2 fold change

Consider the following illustrative entries.
{"ORDERED_RESIDUES": "RRIRQRPPRLPRPRPRPVFEPRP", "shrunken log2 fold change": 0.0624}
{"ORDERED_RESIDUES": "RRIRERPPRLPRPRPRPRTNPRP", "shrunken log2 fold change": 0.00565}
{"ORDERED_RESIDUES": "RRIRARPPRLPRPRPRPPEAPRP", "shrunken log2 fold change": 0.699}
{"ORDERED_RESIDUES": "RRIRGRPPRLPRPRPRPHYRPRP", "shrunken log2 fold change": 0.231}
{"ORDERED_RESIDUES": "RRIRCRPPRLPRPRPRPKNDPRP", "shrunken log2 fold change": -0.048}
{"ORDERED_RESIDUES": "RRIRKRPPRLPRPRPRPNLTPRP", "shrunken log2 fold change": -0.112}
{"ORDERED_RESIDUES": "RRIRARPPRLPRPRPRPIRLPRP", "shrunken log2 fold change": -0.0928}

Read the next record carefully.
Write down the reported shrunken log2 fold change of RRIRDRPPRLPRPRPRPTPQPRP , test system: Escherichia coli TOP10.
0.0786

---

Tested on: Escherichia coli TOP10
EXPERIMENT_DESCRIPTION: shrunken log2 fold change of peptide-encoding DNA abundance (4.5 h post-induction vs induction); higher = less antimicrobial activity (less host growth inhibition)
CONDITION_LABEL: time post-induction: 4.5 h; library: site-saturation at positions 5, 18, 19, 20
I'd be grateful if you could share measured shrunken log2 fold change for these entries.
One number for each entry.

Consider the following illustrative entries.
{"ORDERED_RESIDUES": "RRIRQRPPRLPRPRPRPAHNPRP", "NUMERIC_RESULT": -0.0225}
{"ORDERED_RESIDUES": "RRIRDRPPRLPRPRPRPAHSPRP", "NUMERIC_RESULT": -0.143}
{"ORDERED_RESIDUES": "RRIRERPPRLPRPRPRPAHYPRP", "NUMERIC_RESULT": -0.148}

Provide shrunken log2 fold change for all items below, preserving their order.
1. RRIRNRPPRLPRPRPRPYLYPRP
2. RRIRCRPPRLPRPRPRPLEFPRP

1: -0.317; 2: -0.245

Provide shrunken log2 fold change for all items below, preserving their order.
1. RRIRRRPPRLPRPRPRPVWVPRP
2. RRIRWRPPRLPRPRPRPQSTPRP

1. 0.566
2. 0.02

---

System: Escherichia coli TOP10;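 note: peptides expressed intracellularly from a pBAD plasmid library in pooled LB shake-flask culture, induced with 0.3% L-arabinose, DNA abundance read by NGS, three biological replicates, DESeq2 with apeglm shrinkage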
EXPERIMENT_DESCRIPTION: shrunken log2 fold change of peptide-encoding DNA abundance (4.5 h post-induction vs induction); higher = less antimicrobial activity (less host growth inhibition)
CONDITION_LABEL: time post-induction: 4.5 h; library: site-saturation at positions 5, 18, 19, 20
MEASURED_METRIC: shrunken log2 fold change
Numbers only.

Consider the following illustrative entries.
{"ORDERED_RESIDUES": "RRIRHRPPRLPRPRPRPYQHPRP", "SYSTEM": "Escherichia coli TOP10", "shrunken log2 fold change": -0.0148}
{"ORDERED_RESIDUES": "RRIRVRPPRLPRPRPRPFFRPRP", "SYSTEM": "Escherichia coli TOP10", "shrunken log2 fold change": 0.0448}
{"ORDERED_RESIDUES": "RRIRQRPPRLPRPRPRPLYNPRP", "SYSTEM": "Escherichia coli TOP10", "shrunken log2 fold change": -0.796}
{"ORDERED_RESIDUES": "RRIRKRPPRLPRPRPRPANQPRP", "SYSTEM": "Escherichia coli TOP10", "shrunken log2 fold change": 0.239}
{"ORDERED_RESIDUES": "RRIRSRPPRLPRPRPRPRRMPRP", "SYSTEM": "Escherichia coli TOP10", "shrunken log2 fold change": 0.141}
{"ORDERED_RESIDUES": "RRIRIRPPRLPRPRPRPVQSPRP", "SYSTEM": "Escherichia coli TOP10", "shrunken log2 fold change": -0.168}

Provide shrunken log2 fold change for all items below, preserving their order.
1. RRIRTRPPRLPRPRPRPSSRPRP
2. RRIRGRPPRLPRPRPRPNNCPRP

0.543
0.101
